Where these numbers come from: patent US20210395256A1

Assay: Liver microsomes metabolic stability assay, human
Type: in vitro ADME
Conditions: human liver microsomes 0.5 mg/mL, 37° C., read-out: t1/2 Human
RECORDED ENDPOINT: half-life at 2 μM (h)

A selection of reference data follows.
>  <COMPOUND>
Fc1ccc(F)c([C@H]2CCCN2c2ccn3ncc(-c4nc5cnncc5[nH]4)c3n2)c1

>  <MEASURE UNIT>
h

>  <half-life at 2 μM>
1.09

$$$$
>  <COMPOUND>
COCCOc1cc2nc(-c3cnn4ccc(N5CCC[C@@H]5c5cc(F)ccc5F)nc34)[nH]c2cc1OCCOC

>  <MEASURE UNIT>
h

>  <half-life at 2 μM>
0.468

$$$$
>  <COMPOUND>
CC(C)(O)c1nnc(-c2cnn3ccc(N4CCC[C@@H]4c4cc(F)ccc4F)nc23)[nH]1

>  <MEASURE UNIT>
h

>  <half-life at 2 μM>
2.07

$$$$

1. CS(=O)(=O)c1cc2nc(-c3cnn4ccc(N5CCC[C@@H]5c5cc(F)ccc5F)nc34)[nH]c2cc1C(N)=O
2. Cc1nnc(-c2cnn3ccc(N4CCCC4c4cc(F)ccc4F)nc23)[nH]1 (centres unmarked) [Comparative compound A, reference compound]
[Q] Compare the recorded half-life at 2 μM of 1 and 2 ; state which is larger. When you have decided, please share the label of that item.
[A] 1

A. CNC(=O)c1cc2nc(-c3cnn4ccc(N5CCC[C@@H]5c5cc(F)ccc5F)nc34)[nH]c2cc1OC
B. COc1cc2nc(-c3cnn4ccc(N5CCC[C@@H]5c5cc(F)ccc5F)nc34)[nH]c2cc1C(=O)O
[Q] Parameter metric = half-life at 2 μM. Return the lower-valued option from A and B . // respond with label for picked entry
[A] A

---

Test: Liver microsomes metabolic stability assay, mouse
Type: in vitro ADME
Details: male, mouse liver microsomes 0.5 mg/mL, 37° C., read-out: t1/2 Mouse
RECORDED ENDPOINT: half-life at 2 μM (min)

Known half-life at 2 μM results, listed for orientation:
>  <COMPOUND>
OC1(c2nnc(-c3cnn4ccc(N5CCC[C@@H]5c5cc(F)ccc5F)nc34)[nH]2)CCC1

>  <RECORDED ENDPOINT>
half-life at 2 μM

>  <MEASURE UNIT>
min

>  <READOUT NUMBER>
28.5

$$$$
>  <COMPOUND>
CC(C)(O)c1nnc(-c2cnn3ccc(N4CCC[C@@H]4c4cc(F)ccc4F)nc23)[nH]1

>  <RECORDED ENDPOINT>
half-life at 2 μM

>  <MEASURE UNIT>
min

>  <READOUT NUMBER>
71.5

$$$$
>  <COMPOUND>
C[C@@H](CO)c1nnc(-c2cnn3ccc(N4CCC[C@@H]4c4cc(F)ccc4F)nc23)[nH]1

>  <RECORDED ENDPOINT>
half-life at 2 μM

>  <MEASURE UNIT>
min

>  <READOUT NUMBER>
33.5

$$$$

I. CSc1cc2nc(-c3cnn4ccc(N5CCC[C@@H]5c5cc(F)ccc5F)nc34)[nH]c2cc1C#N
II. C[S+]([O-])c1cc2nc(-c3cnn4ccc(N5CCC[C@@H]5c5cc(F)ccc5F)nc34)[nH]c2cc1C#N (stereo partly drawn)
[Q] Just tell me: smaller half-life at 2 μM value, I or II ? Write down the label attached to your selection.
[A] II
(II: 19.5 min, I: 41.5 min)

A. N#Cc1cc2nc(-c3cnn4ccc(N5CCC[C@@H]5c5cc(F)ccc5F)nc34)[nH]c2cc1C#N
B. CS(=O)(=O)c1cc2nc(-c3cnn4ccc(N5CCC[C@@H]5c5cc(F)ccc5F)nc34)[nH]c2cc1C(N)=O
C. CS(=O)(=O)c1cc2nc(-c3cnn4ccc(N5CCC[C@@H]5c5cc(F)ccc5F)nc34)[nH]c2cc1C#N
[Q] Rank items: key half-life at 2 μM, increasing. Provide your answer as the labels ordered per the instruction.
[A] B, C, A

a. Fc1ccc(F)c([C@H]2CCCN2c2ccn3ncc(-c4nc5cnncc5[nH]4)c3n2)c1
b. COc1cc2nc(-c3cnn4ccc(N5CCC[C@@H]5c5cc(F)ccc5F)nc34)[nH]c2cc1C(=O)O
c. Fc1ccc(F)c([C@H]2CCCN2c2ccn3ncc(-c4nnc(-c5ccc6c(c5)CCNC6)[nH]4)c3n2)c1
[Q] Sequence the entries by half-life at 2 μM, beginning with the highest number. The labels, placed in the requested order, form the answer.
[A] b, c, a

a. COCCOc1cc2[nH]c(-c3cnn4ccc(N5CCC[C@@H]5c5cc(F)ccc5F)nc34)nc2cc1C#N
b. N#Cc1cc2[nH]c(-c3cnn4ccc(N5CCC[C@@H]5c5cc(F)ccc5F)nc34)nc2cc1F
[Q] Could you tell me which of a and b has the lower half-life at 2 μM reading? Give the label under which the chosen entry appears.
[A] a

a. OC1CC(c2nnc(-c3cnn4ccc(N5CCC[C@@H]5c5cc(F)ccc5F)nc34)[nH]2)C1 (stereo partly drawn)
b. COCCOc1cc2nc(-c3cnn4ccc(N5CCC[C@@H]5c5cc(F)ccc5F)nc34)[nH]c2cc1OCCOC
[Q] Given the listed records, identify the one among a and b with higher half-life at 2 μM. Kindly state the label of the option you pick.
[A] a
